test: amyloid nucleation score (Sup35N fusion, yeast selection) (log enrichment); library NNK1; higher = more nucleation; inactive = no reads after selection;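 further: zero at mode of non-aggregating sequences after 7 days selection at 30°C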
Give rule met when the value for amyloid nucleation score is at least 0.4. Give rule not met when it is less.

INSERT INTO measurements (substance, category_label) VALUES
  ('IRGLRVLHSVFLALLVCKNL', 'rule not met'),
  ('NYVIGRVIISMYGNDVTRLP', 'rule met'),
  ('GHSRSSGLLKKFCVKSRQDA', 'rule not met'),
  ('SLYVYISRFMTLMGCLTVNH', 'rule met'),
  ('RSVSLC', 'rule met'),
  ('RLVLNCRYNYCSREFVFYAV', 'rule not met'),
  ('YDDTTMYRFWLHFKM', 'rule met'),
  ('YIWSVYLLLCWHWCRMSCSG', 'rule met'),
  ('VGHNGIFYC', 'rule not met'),
  ('LMRHMFAWVDFIFSGSTQAC', 'rule met'),
  ('YCQSSWMSSFSTEFHKARLN', 'rule met'),
  ('RTLLSFNRDVSFEGQPPGWL', 'rule not met'),
  ('LLRWLFCFEWHDSNMSTNII', 'rule not met'),
  ('HRSTVAKSTRKLPGICSVFW', 'rule met'),
  ('YFLICSLWPYVLPYCVCRFV', 'rule not met'),
  ('FKSILRYPADRKMS', 'rule met'),
  ('FSSICSRMEEGMTE', 'rule not met'),
  ('QFSRTRFFICGLGRSAPAVR', 'rule met'),
  ('RGLVFEGKLAFTVATVVFFW', 'rule not met'),
  ('FFWYPTFISFDRKFEVTIGP', 'rule met'),
  ('CFQVYICVVDSDYRNFLWDA', 'rule met'),
  ('RKDVLEGADSMTMVRRSSLF', 'rule not met'),
  ('IAMSSYPLD', 'rule met'),
  ('QIVRTRFNRYR', 'rule not met'),
  ('NMIKYVTLKMRL', 'rule not met'),
  ('TYCRQDRWVGSKKLSCTIDC', 'rule not met'),
  ('VNWRGNSRVGIRNRFFCHSH', 'rule not met'),
  ('PNIKLSDRLGIIRREIWMVV', 'rule met'),
  ('GFALECESEVWSCYYTIRII', 'rule met'),
  ('AVRVLPSLNVGAGMRQVVFT', 'rule met'),
  ('YDVVRSGFLGVDNITRLMPR', 'rule not met'),
  ('CHNVAVPRVIVIGFDSGILY', 'rule not met'),
  ('LLDLDVTLIRNHWWFKSLLA', 'rule not met');
